Data provenance is patent US20220119522A1.

Target: T1, human TREM2 on the cell surface (human, UniProt Q9NZC2 19-230)
T1 construct: also called surface TREM2; TREM2 expressed in HEK293-H6 cells
T1 sequence: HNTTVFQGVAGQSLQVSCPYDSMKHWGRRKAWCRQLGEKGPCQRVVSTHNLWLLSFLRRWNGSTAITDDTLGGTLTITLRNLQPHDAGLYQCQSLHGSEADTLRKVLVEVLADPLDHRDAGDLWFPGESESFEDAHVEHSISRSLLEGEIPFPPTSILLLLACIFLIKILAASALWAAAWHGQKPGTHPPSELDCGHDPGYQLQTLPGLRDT
Assay: cell binding, human macrophages, dose titration
Reported metric: pEC50
// field semantics: pEC50 = negative decimal log of concentration (mol/L)

# count of solved cases: 2
1. CL0020120 (antibody, V domains shown, also called Clone CL0020120) VH: EVQLQQSGPELVRTGASVKISCRASSYSFTDNYIHWVKQTHGRSLEWIGYISGYTGATSYNQKFKGKATFTVDTSSSTAYMQFNSLTSEDSAVYYCARSTMIAPYGMDYWGQGTSVTVSS VL: DIVMTQSHKFMSTSVGDRVNITCKASQDVVTAVAWYQQKPGQSPKLLIYWASTRHTGVPDRFTGSGSGTDFTLTISNVQSEDLADYFCQQYSRYPLTFGAGTKLELK	8.80
2. CL0020206 (antibody, V domains shown, also called Clone CL0020206) VH: EVQLQQSGPVLVKPGASVKMSCKASGYTFTDYYMNWVKQSHGKSLEWIGIINPYSGGISYNQKFKGKAILTVDKSSSTAYMELNSLTSEASAVYYCTRRNWDGRYAMDYWGQGTSVTVSS VL: DIVMTQSHKFMSTSVGDRVSITYKASQDVGSAVAWYQQKPGQSPKLLIYWTSTRHTGVPDRFTGSGSGTDFTLTISNVQSEDLADYFCQQYSSYPFTFGGGTKLEIK	8.32

Shift focus to the following entry.
Sure, the documented pEC50 for CL0020314 (antibody, V domains shown, also called Clone CL0020314) VH: DVKLVESGGGLVKLGGSLKLSCAASGFTFSSYYMSWVRQTPEKRLELVAAINTNGGRTYYPDTVKGRFTISRDNAKNTLYLQMSSLKSEDTALYYCARESDGGAFAYWGQGTLVTVSA VL: DVVMTQTPLSLPVSLGDQASISCRSSQSLVHSNGNTYLHWYLQKPGQSPKLLIYKVSNRFSGVPDRFSGSGSGTDFTLKISRVEAEDLGVYFCSQNTHVPLTFGAGTKLELK is 10.30
